target: Follistatin-related protein 3 (Homo sapiens); experiment: FSTL3 binders on small-molecule microarrays, primary screen, biochemical, small-molecule microarray, 635 nm fluorescence (AID 1105); details: FSTL3 binding, higher = more signal;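 further: score merges emission near 667 nm and signal to noise per printed spot across three slides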
observed_property: composite z-score

| compound | number |
| --- | --- |
| C=CCNC(=O)[C@@H]1[C@H]2C(=O)O[C@H](c3ccccc3)[C@H](c3ccccc3)N2[C@H](c2ccc(O)cc2)[C@@]12C(=O)N(C(=O)OCCOC)c1ccc(C#CCNC(N)=O)cc12 | 1.08 |
| C=CCNC(=O)[C@H]1[C@@H]2C(=O)O[C@@H](c3ccccc3)[C@@H](c3ccccc3)N2[C@@H](c2ccccc2OCCO)[C@]12C(=O)Nc1ccc(C#CCCO)cc12 | 0.229 |
| COC(=O)[C@@]1(Cc2ccc(F)cc2)[C@H]2c3cc(C(=O)N(C)C)n(Cc4ccc(Cl)c(C(F)(F)F)c4)c3C[C@H]2CN1C(=O)c1ccccc1 | 0.923 |
| C[N+](C)(C)CCCCNC(=O)[C@H]1C[C@H]2C(=O)N3CCC[C@H]3C(=O)N2[C@H]1c1cccc(OCCO)c1 | 1.14 |
| CC(=O)NCCCC[C@@H]1NC(=O)[C@H]2C[C@@H](C(=O)NCCCCCCNC(=O)CS)[C@@H](c3ccc(O)cc3)N2C1=O | -0.961 |
| CN1C(=O)C2C=CC(C(O)c3ccco3)N(Nc3ccccc3)C2C1=O (configuration not stated) | 0.523 |
| CC1CC/C=C\[C@H]2OC34C=CCN(C(C)(C)C)C(=O)[C@H]3N(C(C)CO)C(=O)[C@@H]4C2C(=O)O1 (some centres not stated) | -0.268 |

###

Catalogue of compounds with associated z-score
assay: splicing luciferase reporter signal modulators, primary screen, spliceosome inhibition project, cell-based, HEK293, splice +/- reporter (AID 1101); conditions: luminescence, 24 h, higher = more signal, called active from +8 up or from −8 down;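 further: HEK293 cells carrying a splicing-competent luciferase reporter gene; test concentration not given here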
observed_property: z-score

| compound | observed_property | number |
| --- | --- | --- |
| CC(C)NC(=O)[C@@]1(C)c2ccccc2C(=O)N(Cc2cc(C(F)(F)F)cc(C(F)(F)F)c2)[C@H]1c1ccc(CO)cc1 | z-score | 0.207 |
| C=CCN1C(=O)[C@@]2(CC=C)N=C(c3ccc(OCCCO)cc3)O[C@H]2c2ccccc21 | z-score | -1.63 |
| O[C@@H](Cc1ccccc1)[C@H]1C2C=CCCC=C2CN1Cc1cccc(Cl)c1 (some centres undefined) | z-score | -0.381 |
| O=C(c1ccccc1)N1Cc2ccccc2C[C@@]2(COC(c3ccc(OCCCO)cc3)=N2)C1=O | z-score | 0.372 |
| C=CC[C@@]12N=C(c3ccc(OCCCO)cc3)O[C@@H]1c1ccccc1N(C)C2=O | z-score | -0.933 |
| C=C[C@H](CO)NS(=O)(=O)c1ccc(Br)cc1 | z-score | -0.0902 |
| COc1ccc(CCNC(=O)[C@@]2(C)c3ccccc3C(=O)N(C(C)C)[C@H]2c2ccc(CO)cc2)cc1 | z-score | -0.36 |
| COc1ccccc1CN1C(=O)c2ccccc2[C@@H](C(=O)NC2CC2)[C@@H]1c1ccc(CO)cc1 | z-score | 0.0463 |
| C=C[C@@H](COC(=O)OC(C)(C)C)N(Cc1ccc(OC)cc1)S(=O)(=O)c1ccc(Br)cc1 | z-score | 0.255 |

###

target: Alpha-bungarotoxin (Bungarus multicinctus) (UniProt P60615); test: alpha-bungarotoxin binders on microarray, profiling panel, artefact control for SMM control protein annotation, biochemical, small-molecule microarray, Alexa647 label, 635/667 nm fluorescence (AID 1117); details: alpha-BTX-A647 binding fluorescence, higher = more signal
Sequence (P60615 whole entry, looked up): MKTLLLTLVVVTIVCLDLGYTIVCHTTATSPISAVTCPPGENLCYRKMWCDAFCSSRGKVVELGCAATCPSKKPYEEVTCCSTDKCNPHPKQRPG

| mol_smiles | system_name | composite z-score |
| --- | --- | --- |
| CN(C)CCCCCCNC(=O)[C@H]1C[C@H]2C(=O)N3CCC[C@H]3C(=O)N2[C@H]1c1ccc(O)cc1 | Alpha-bungarotoxin (Bungarus multicinctus) (UniProt P60615) | 0.73 |
| COCCOC(=O)N1C(=O)[C@@]2(c3cc(C#CCNC(N)=O)ccc31)[C@H](C(=O)Nc1nc3ccccc3s1)[C@H]1C(=O)O[C@H](c3ccccc3)[C@H](c3ccccc3)N1[C@@H]2c1ccc(OCCO)cc1 | Alpha-bungarotoxin (Bungarus multicinctus) (UniProt P60615) | 1.24 |
| CN(C)CCCC[C@@H]1NC(=O)[C@@H]2C[C@H](C(=O)NCCCCCCN)[C@H](c3cccc(OCCO)c3)N2C1=O | Alpha-bungarotoxin (Bungarus multicinctus) (UniProt P60615) | 2.63 |

###

assay: adipocyte viability effects, profiling panel, cell-based, 3T3-L1 adipocytes, calcein-AM fluorescence, 48 h, basal (AID 1163); conditions: 3T3-L1 adipocytes viability, higher = more signal; further: test concentration not given here
Catalogue of molecules with associated z-score

| molecule | z-score |
| --- | --- |
| CCS[C@H]1[C@@H](C(=O)O)[C@H](c2ccc(C)cc2)N(S(=O)(=O)c2ccc(C)cc2)[C@@H]1CC | -0.507 |
| CCCC[C@@H]1C[C@H]1[C@@H](NC(=O)c1cccs1)c1ccc(-c2ccccc2)cc1 | -0.537 |
| COc1cc2c(cc1OC)CN(C(=O)[C@H]1[C@@H]3C(=O)O[C@@H](c4ccccc4)[C@@H](c4ccccc4)N3[C@@H](c3ccc(O)cc3)[C@]13C(=O)Nc1ccc(C#CCCO)cc13)CC2 | 1.04 |
| CC(C)C[C@@H]1NC(=O)[C@H](C(C)C)NC(=O)[C@@]23C(=O)N[C@@H](Cc4ccccc4)C2[C@H](C)[C@@]2(C)O[C@H]2C3/C=C/CC/C=C/CNC1=O (some centres undefined) | 1.39 |
| COC(=O)C(CC#Cc1ccc2c(c1)[C@]1(C(=O)N2)[C@H](C(=O)Nc2nc3ccccc3s2)[C@H]2C(=O)O[C@H](c3ccccc3)[C@H](c3ccccc3)N2[C@@H]1c1ccccc1OCCO)C(=O)OC | 0.728 |
| [N-]=[N+]=Nc1ccccc1[C@@H]1OC(c2ccc(OCCCO)cc2)=N[C@]1(Cc1ccccc1)C(=O)N1CCOCC1 | -1.63 |
| C=C(CCCC)C(=O)CC[C@@H](OC(=O)c1ccccc1-c1ccccc1C(=O)O)c1ccc(OCCO)cc1 | 1.22 |
| CCC(CC)C(O)C1C=CC2C(=O)NC(=O)C2N1Nc1ccccn1 (centres undefined) | -0.883 |
| COC(=O)C(CC#Cc1ccc2c(c1)[C@]1(C(=O)N2)[C@H](c2ccc(OCCO)cc2)N2[C@H](c3ccccc3)[C@H](c3ccccc3)OC(=O)[C@H]2[C@@H]1C(=O)Nc1nc2ccccc2s1)C(=O)OC | 0.368 |
| C[C@H]1NC(=O)[C@@]23C(=O)N[C@@H](Cc4ccccc4)C2[C@H](C)[C@@]2(C)O[C@H]2C3/C=C/C/C=C\CNC(=O)[C@@H]2CCCN2C1=O (some centres undefined) | 0.286 |
| COC(=O)C[C@H]1O[C@]2(C(=O)N(C)c3ccccc32)[C@@H](C)[C@@H]1[Si](C)(C)F | 0.587 |
| COC(=O)[C@@]1(Cc2ccc(F)cc2)[C@H]2c3cc(C(=O)N(C)C)n(Cc4ccccc4)c3C[C@H]2CN1C(=O)c1ccccc1 | -0.184 |
| O=C1N[C@@H](Cc2ccccc2)C(=O)N2[C@@H]1C[C@@H](C(=O)O)[C@H]2c1cccc(OCCO)c1 | -0.732 |
| OCCCC1=CC(c2cccs2)N(Cc2cc3c(cc2Br)OCO3)CC1 (centres undefined) | 1.03 |

###

assay: MM1S myeloma cell viability, profiling panel, resazurin fluorescence, basal, 24 h, PK04 Diversity Set (AID 1174); settings: higher = more signal, called active from +8 up or from −8 down;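 further: MM1S multiple myeloma cell line; test concentration not given here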
Rule: z-score under 0.1 gives not fulfilled, otherwise fulfilled.

| compound | discrete_label |
| --- | --- |
| CC(C)=CCCC(C)=CC(O)C1C=CC2C(=O)N(C)C(=O)C2N1Nc1ccccc1 (centres undefined) | not fulfilled |
| Cc1ccc([C@@H]2C[C@@H](Sc3ccccc3)[C@H](C(=O)O)CN2S(=O)(=O)c2ccc(C)cc2)cc1 | not fulfilled |
| Cc1ccc(S[C@]2(C(=O)NCCCN(C)C)CC(=O)N(Cc3cc(C(F)(F)F)cc(C(F)(F)F)c3)[C@@H]2c2ccc(CO)cc2)cc1 | not fulfilled |
| NC(=O)NCC#Cc1ccc2c(c1)[C@]1(C(=O)N2)[C@H](c2ccc(O)cc2)N2[C@H](c3ccccc3)[C@H](c3ccccc3)OC(=O)[C@H]2[C@@H]1C(=O)O | fulfilled |
| CC1CC/C=C\[C@H]2OC34C=CCN(C(C)(C)C)C(=O)[C@H]3N(CCO)C(=O)[C@@H]4C2C(=O)O1 (some centres undefined) | not fulfilled |
| Cc1ccccc1C(O)C1C=CC2C(=O)N(c3ccccc3)C(=O)C2N1Nc1ccc(C(C)C)cc1 (centres undefined) | not fulfilled |
| COc1ccc(CCNC(=O)[C@@]2(Sc3ccc(C)cc3)CC(=O)N(C3Cc4ccccc4C3)[C@@H]2c2ccc(CO)cc2I)cc1 | not fulfilled |
| CN(C)CCCC[C@@H]1NC(=O)[C@@H]2C[C@H](C(=O)NCCCCCCN)[C@H](c3cccc(OCCO)c3)N2C1=O | fulfilled |
| C[N+](C)(C)CCCCNC(=O)[C@H]1C[C@H]2C(=O)N3CCC[C@H]3C(=O)N2[C@H]1c1cccc(OCCO)c1 | not fulfilled |
| COC(=O)[C@H](Cc1ccccc1)N[C@@H](/C=C/C1CC1)[C@H](O)Cc1ccccc1 | fulfilled |
| COCCOC(=O)N1C(=O)[C@@]2(c3ccccc31)[C@H](C(=O)N1CCc3cc(OC)c(OC)cc3C1)[C@H]1C(=O)O[C@H](c3ccccc3)[C@H](c3ccccc3)N1[C@@H]2c1ccc(OCCO)cc1 | not fulfilled |
| NC(=O)NCC#Cc1ccc2c(c1)[C@]1(C(=O)N2)[C@H](C(=O)Nc2nc3ccccc3s2)[C@H]2C(=O)O[C@H](c3ccccc3)[C@H](c3ccccc3)N2[C@@H]1c1ccccc1OCCO | not fulfilled |
| O=C(NCCN1CCOCC1)C1N=C(c2ccc(OCCCO)cc2)N(c2ccccc2)O1 (centres undefined) | fulfilled |
| COCCOC(=O)N1C(=O)[C@@]2(c3cc(C#CCCO)ccc31)[C@H](C(=O)N1CCCCCCC1)[C@H]1C(=O)O[C@H](c3ccccc3)[C@H](c3ccccc3)N1[C@@H]2c1ccc(OCCO)cc1 | fulfilled |
